experiment: Stability of L-cysteine derivatives in buffer solution (crystal precipitation by visual observation); assay type: physicochemical; conditions: 58 mM in PBS buffer pH 7.0 to 7.2; stored at 5° C. in the dark; day 3
endpoint: crystal precipitation, Days 3

{"compound": "CC1(C(=O)O)N[C@H](C(=O)O)CS1 (mixture of isomers) [Compound 2]", "measured-value": "−"}
{"compound": "Cl.N[C@@H](CS)C(=O)O.O [L-cysteine, L-cysteine hydrochloride monohydrate]", "measured-value": "++"}
{"compound": "CCOC(=O)C1N[C@H](C(=O)O)CS1 (mixture of isomers) [Compound 8]", "measured-value": "−"}
{"compound": "CC(C)(C)OC(=O)C1(C)N[C@H](C(=O)O)CS1 (mixture of isomers) [Compound 6]", "measured-value": "−"}
{"compound": "CCOC(=O)C1(C)N[C@H](C(=O)O)CS1 (mixture of isomers) [Compound 1]", "measured-value": "−"}

* * *

Assay: Stability of L-cysteine derivatives in buffer solution (crystal precipitation by visual observation)
Type: physicochemical
Settings: 58 mM in PBS buffer pH 7.0 to 7.2; stored at 5° C. in the dark; day 24
Protocol: In this Example, the stability of L-cysteine derivatives in a buffer solution was evaluated. In the table, “+” to “++++” indicate that crystal precipitation was observed, and the higher the number of “+”, the greater the degree of precipitation.

{"compound": "Cl.N[C@@H](CS)C(=O)O.O [L-cysteine, L-cysteine hydrochloride monohydrate]", "crystal precipitation, Days 24": "+++"}
{"compound": "COC(=O)C1(Cc2ccc(O)cc2)N[C@H](C(=O)O)CS1 (mixture of isomers)", "crystal precipitation, Days 24": "−"}
{"compound": "CCOC(=O)C1N[C@H](C(=O)O)CS1 (mixture of isomers)", "crystal precipitation, Days 24": "−"}
{"compound": "CC(C)(C)OC(=O)C1(C)N[C@H](C(=O)O)CS1 (mixture of isomers)", "crystal precipitation, Days 24": "−"}
{"compound": "COC(=O)[C@]1(C)N[C@H](C(=O)O)CS1 (stereo in doubt)", "crystal precipitation, Days 24": "−"}

* * *

assay: Stability of L-cysteine derivatives in buffer solution (crystal precipitation by visual observation); format: physicochemical; conditions: 58 mM in PBS buffer pH 7.0 to 7.2; stored at 5° C. in the dark; day 14
endpoint: crystal precipitation, Days 14

{"compound": "COC(=O)[C@]1(C)N[C@H](C(=O)O)CS1 (stereo in doubt) [Compound 3R]", "endpoint": "crystal precipitation, Days 14", "measured-value": "−"}
{"compound": "CC1(C(=O)O)N[C@H](C(=O)O)CS1 (mixture of isomers) [Compound 2]", "endpoint": "crystal precipitation, Days 14", "measured-value": "−"}
{"compound": "CCOC(=O)C1(C)N[C@H](C(=O)O)CS1 (mixture of isomers) [Compound 1]", "endpoint": "crystal precipitation, Days 14", "measured-value": "−"}
{"compound": "Cl.N[C@@H](CS)C(=O)O.O [L-cysteine, L-cysteine hydrochloride monohydrate]", "endpoint": "crystal precipitation, Days 14", "measured-value": "+++"}

* * *

Experiment: Stability of L-cysteine derivatives in buffer solution (crystal precipitation by visual observation)
Type: physicochemical
Conditions: 58 mM in PBS buffer pH 7.0 to 7.2; stored at 5° C. in the dark; day 7
Description: In this Example, the stability of L-cysteine derivatives in a buffer solution was evaluated. In the table, “+” to “++++” indicate that crystal precipitation was observed, and the higher the number of “+”, the greater the degree of precipitation.

{"molecule": "COC(=O)[C@]1(C)N[C@H](C(=O)O)CS1 (stereo in doubt)", "crystal precipitation, Days 7": "−"}
{"molecule": "Cl.N[C@@H](CS)C(=O)O.O [L-cysteine, L-cysteine hydrochloride monohydrate]", "crystal precipitation, Days 7": "+++"}
{"molecule": "CC(C)OC(=O)C1(C)N[C@H](C(=O)O)CS1 (mixture of isomers)", "crystal precipitation, Days 7": "−"}
{"molecule": "COC(=O)C1(Cc2ccc(O)cc2)N[C@H](C(=O)O)CS1 (mixture of isomers)", "crystal precipitation, Days 7": "−"}
{"molecule": "CC1(C(=O)O)N[C@H](C(=O)O)CS1 (mixture of isomers)", "crystal precipitation, Days 7": "−"}

Values compiled from patent US20230044979A1.
